test-target: 5-hydroxytryptamine receptor 3A (Mus musculus) (UniProt P23979)
Sequence (P23979 whole entry, looked up): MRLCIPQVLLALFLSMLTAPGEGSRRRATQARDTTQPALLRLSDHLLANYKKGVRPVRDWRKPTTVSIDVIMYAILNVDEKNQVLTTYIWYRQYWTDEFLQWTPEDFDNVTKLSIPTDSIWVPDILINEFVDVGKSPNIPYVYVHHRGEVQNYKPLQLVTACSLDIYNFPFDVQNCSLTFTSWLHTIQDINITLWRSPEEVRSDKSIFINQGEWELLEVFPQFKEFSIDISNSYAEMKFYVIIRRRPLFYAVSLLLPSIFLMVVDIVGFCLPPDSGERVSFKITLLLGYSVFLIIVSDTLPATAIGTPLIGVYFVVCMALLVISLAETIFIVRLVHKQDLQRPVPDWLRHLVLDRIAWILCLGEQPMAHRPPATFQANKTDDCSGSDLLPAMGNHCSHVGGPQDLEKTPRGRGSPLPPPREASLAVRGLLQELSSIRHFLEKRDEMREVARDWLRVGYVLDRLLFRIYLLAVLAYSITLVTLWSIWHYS
IC50 under 20 µM gets y, anything at or over 20 µM gets n.

{"molecule": "CC1CCCCN1CCCNC(=O)c1ccc2c(=O)n(Cc3ccc(Cl)cc3)c(=O)[nH]c2c1 (configuration not stated)", "category": "y"}
{"molecule": "CC1CCCCN1CCCNC(=O)c1ccc2c(=O)n(C3CCCCC3)c(=O)[nH]c2c1 (configuration not stated)", "category": "y"}
{"molecule": "CCC1CCCCN1CCNC(=O)c1ccc2c(=O)n(Cc3ccc(Cl)cc3)c(=O)[nH]c2c1 (configuration not stated)", "category": "y"}
{"molecule": "O=C(NCCN1CCOCC1)c1ccc2c(=O)n(Cc3ccc(Cl)cc3)c(=O)[nH]c2c1", "category": "y"}
{"molecule": "O=C(NCCN1CCOCC1)c1ccc2c(=O)n(-c3ccc(F)cc3)c(=O)[nH]c2c1", "category": "n"}
{"molecule": "O=C(NCCN1CCCCC1)c1ccc2c(=O)n(Cc3ccccc3Cl)c(=O)[nH]c2c1", "category": "y"}
